System: Clostridioides difficile
Experiment: Ratio of MIC for demethylvancomycin to compound MIC for Clostridium difficile ATCC 700057 after 16 hrs by two-fold serial dilution method
Format: functional

Item Smiles	Ratio
CCCCCCCN[C@@]1(C)C[C@H](O[C@H]2[C@H](Oc3c4cc5cc3Oc3ccc(cc3Cl)[C@@H](O)[C@@H](NC(=O)[C@H](N)CC(C)C)C(=O)N[C@@H](CC(N)=O)C(=O)N[C@H]5C(=O)N[C@H]3C(=O)N[C@H](C(=O)N[C@H](C(=O)O)c5cc(O)cc(O)c5-c5cc3ccc5O)[C@H](O)c3ccc(c(Cl)c3)O4)O[C@H](CO)[C@@H](O)[C@@H]2O)O[C@@H](C)[C@H]1O	2
CC(C)C[C@@H](N)C(=O)N[C@H]1C(=O)N[C@@H](CC(N)=O)C(=O)N[C@H]2C(=O)N[C@H]3C(=O)N[C@H](C(=O)N[C@H](C(=O)O)c4cc(O)cc(O)c4-c4cc3ccc4O)[C@H](O)c3ccc(c(Cl)c3)Oc3cc2cc(c3O[C@@H]2O[C@H](CO)[C@@H](O)[C@H](O)[C@H]2O[C@H]2C[C@](C)(NCc3ccc(Br)cc3)[C@H](O)[C@H](C)O2)Oc2ccc(cc2Cl)[C@H]1O	2
CC(C)C[C@@H](N)C(=O)N[C@H]1C(=O)N[C@@H](CC(N)=O)C(=O)N[C@H]2C(=O)N[C@H]3C(=O)N[C@H](C(=O)N[C@H](C(=O)O)c4cc(O)cc(O)c4-c4cc3ccc4O)[C@H](O)c3ccc(c(Cl)c3)Oc3cc2cc(c3O[C@@H]2O[C@H](CO)[C@@H](O)[C@H](O)[C@H]2O[C@H]2C[C@](C)(NCc3ccc(Cl)cc3)[C@H](O)[C@H](C)O2)Oc2ccc(cc2Cl)[C@H]1O	2

====

Test system: Enterococcus faecalis
Assay: Antibacterial activity against Enterococcus faecalis ATCC 700802 after 16 hrs by two-fold serial dilution method
Format: functional
Conditions: ATCC 700802, 16 h
Assay Metric: MIC

Item Smiles	Assay Metric	Test Value
CC(C)C[C@@H](N)C(=O)N[C@H]1C(=O)N[C@@H](CC(N)=O)C(=O)N[C@H]2C(=O)N[C@H]3C(=O)N[C@H](C(=O)N[C@H](C(=O)O)c4cc(O)cc(O)c4-c4cc3ccc4O)[C@H](O)c3ccc(c(Cl)c3)Oc3cc2cc(c3O[C@@H]2O[C@H](CO)[C@@H](O)[C@H](O)[C@H]2O[C@H]2C[C@](C)(NCc3ccc(F)cc3)[C@H](O)[C@H](C)O2)Oc2ccc(cc2Cl)[C@H]1O	MIC	16 µg/mL
CCCCCCCN[C@@]1(C)C[C@H](O[C@H]2[C@H](Oc3c4cc5cc3Oc3ccc(cc3Cl)[C@@H](O)[C@@H](NC(=O)[C@H](N)CC(C)C)C(=O)N[C@@H](CC(N)=O)C(=O)N[C@H]5C(=O)N[C@H]3C(=O)N[C@H](C(=O)N[C@H](C(=O)O)c5cc(O)cc(O)c5-c5cc3ccc5O)[C@H](O)c3ccc(c(Cl)c3)O4)O[C@H](CO)[C@@H](O)[C@@H]2O)O[C@@H](C)[C@H]1O	MIC	8 µg/mL
CC(C)C[C@@H](N)C(=O)N[C@H]1C(=O)N[C@@H](CC(N)=O)C(=O)N[C@H]2C(=O)N[C@H]3C(=O)N[C@H](C(=O)N[C@H](C(=O)O)c4cc(O)cc(O)c4-c4cc3ccc4O)[C@H](O)c3ccc(c(Cl)c3)Oc3cc2cc(c3O[C@@H]2O[C@H](CO)[C@@H](O)[C@H](O)[C@H]2O[C@H]2C[C@](C)(NCc3cc4ccccc4o3)[C@H](O)[C@H](C)O2)Oc2ccc(cc2Cl)[C@H]1O	MIC	8 µg/mL

====

Tested on: Clostridioides difficile
Assay: Ratio of MIC for demethylvancomycin to compound MIC for Clostridium difficile ATCC 700792 after 16 hrs by two-fold serial dilution method
Assay type: functional
As shown below, each of these molecules has a reported Ratio value.

Item Smiles	Ratio
CCCCCCCN[C@@]1(C)C[C@H](O[C@H]2[C@H](Oc3c4cc5cc3Oc3ccc(cc3Cl)[C@@H](O)[C@@H](NC(=O)[C@H](N)CC(C)C)C(=O)N[C@@H](CC(N)=O)C(=O)N[C@H]5C(=O)N[C@H]3C(=O)N[C@H](C(=O)N[C@H](C(=O)O)c5cc(O)cc(O)c5-c5cc3ccc5O)[C@H](O)c3ccc(c(Cl)c3)O4)O[C@H](CO)[C@@H](O)[C@@H]2O)O[C@@H](C)[C@H]1O	2
CC(C)C[C@@H](N)C(=O)N[C@H]1C(=O)N[C@@H](CC(N)=O)C(=O)N[C@H]2C(=O)N[C@H]3C(=O)N[C@H](C(=O)N[C@H](C(=O)O)c4cc(O)cc(O)c4-c4cc3ccc4O)[C@H](O)c3ccc(c(Cl)c3)Oc3cc2cc(c3O[C@@H]2O[C@H](CO)[C@@H](O)[C@H](O)[C@H]2O[C@H]2C[C@](C)(NCc3ccc(Cl)cc3)[C@H](O)[C@H](C)O2)Oc2ccc(cc2Cl)[C@H]1O	2

====

Examples of compounds with documented MIC follow.
Tested on: Clostridioides difficile
Experiment: Antibacterial activity against Clostridium difficile ATCC 700057 after 16 hrs by two-fold serial dilution method
Assay type: functional
Details: ATCC 700057, 16 h
Assay Metric: MIC (µg/mL)

Compound	Test Value
CC(C)C[C@@H](N)C(=O)N[C@H]1C(=O)N[C@@H](CC(N)=O)C(=O)N[C@H]2C(=O)N[C@H]3C(=O)N[C@H](C(=O)N[C@H](C(=O)O)c4cc(O)cc(O)c4-c4cc3ccc4O)[C@H](O)c3ccc(c(Cl)c3)Oc3cc2cc(c3O[C@@H]2O[C@H](CO)[C@@H](O)[C@H](O)[C@H]2O[C@H]2C[C@](C)(NCCC(C)CC(C)(C)C)[C@H](O)[C@H](C)O2)Oc2ccc(cc2Cl)[C@H]1O (some centres undefined)	0.25
CCCCCCCN[C@@]1(C)C[C@H](O[C@H]2[C@H](Oc3c4cc5cc3Oc3ccc(cc3Cl)[C@@H](O)[C@@H](NC(=O)[C@H](N)CC(C)C)C(=O)N[C@@H](CC(N)=O)C(=O)N[C@H]5C(=O)N[C@H]3C(=O)N[C@H](C(=O)N[C@H](C(=O)O)c5cc(O)cc(O)c5-c5cc3ccc5O)[C@H](O)c3ccc(c(Cl)c3)O4)O[C@H](CO)[C@@H](O)[C@@H]2O)O[C@@H](C)[C@H]1O	0.25
CCCCCCCCCCCCCN[C@@]1(C)C[C@H](O[C@H]2[C@H](Oc3c4cc5cc3Oc3ccc(cc3Cl)[C@@H](O)[C@@H](NC(=O)[C@H](N)CC(C)C)C(=O)N[C@@H](CC(N)=O)C(=O)N[C@H]5C(=O)N[C@H]3C(=O)N[C@H](C(=O)N[C@H](C(=O)O)c5cc(O)cc(O)c5-c5cc3ccc5O)[C@H](O)c3ccc(c(Cl)c3)O4)O[C@H](CO)[C@@H](O)[C@@H]2O)O[C@@H](C)[C@H]1O	2
CC(C)C[C@@H](N)C(=O)N[C@H]1C(=O)N[C@@H](CC(N)=O)C(=O)N[C@H]2C(=O)N[C@H]3C(=O)N[C@H](C(=O)N[C@H](C(=O)O)c4cc(O)cc(O)c4-c4cc3ccc4O)[C@H](O)c3ccc(c(Cl)c3)Oc3cc2cc(c3O[C@@H]2O[C@H](CO)[C@@H](O)[C@H](O)[C@H]2O[C@H]2C[C@](C)(NCC3CCCCC3)[C@H](O)[C@H](C)O2)Oc2ccc(cc2Cl)[C@H]1O	0.5
